EXPERIMENT_NOTES: protein stability index of a GFP-peptide fusion (yeast GPS) (PSI 1-4); higher = more stable; sorted into four equal gates, so the index is relative within each strain
MEASUREMENT_CONTEXT: doa10∆
Dear colleague, classification is by protein stability index, with ranges listed here: range 1 (below 2), range 2 (2 to below 3), range 3 (3 or more)

{"SEQUENCE_ENTRY": "LDSQETPSTEESRAQNV [SWI3]", "LABEL_VALUE": "range 2"}
{"SEQUENCE_ENTRY": "FELFDNKTAHLSIPGKS [SNU114]", "LABEL_VALUE": "range 2"}
{"SEQUENCE_ENTRY": "QLETLTGSIRHRLKLCK [CSE2]", "LABEL_VALUE": "range 3"}
{"SEQUENCE_ENTRY": "PYQHPPNIFPNLTYYNE [ITC1]", "LABEL_VALUE": "range 2"}
{"SEQUENCE_ENTRY": "MLLLNDSVENSSNILED [SRB8]", "LABEL_VALUE": "range 2"}
{"SEQUENCE_ENTRY": "TNKDNKAELIKPIQNGE [ARP9]", "LABEL_VALUE": "range 3"}
{"SEQUENCE_ENTRY": "CGDSIICNTLNIAKDLK [SMC1]", "LABEL_VALUE": "range 1"}
{"SEQUENCE_ENTRY": "KVAEVKKLEGTIEYQKL [RPT4]", "LABEL_VALUE": "range 3"}
{"SEQUENCE_ENTRY": "SPQAVSSFVRQELAKSI [PRE1]", "LABEL_VALUE": "range 2"}
{"SEQUENCE_ENTRY": "RLIDSMKQYSYLMDSKN [RRI1]", "LABEL_VALUE": "range 2"}
{"SEQUENCE_ENTRY": "SFILYYRRALQSSESFD [YML103C/NUP188]", "LABEL_VALUE": "range 1"}
{"SEQUENCE_ENTRY": "DMLLHKYYIVSSSKSMI [SRB8]", "LABEL_VALUE": "range 1"}
{"SEQUENCE_ENTRY": "ICYDVNDWQMLEMLKPC [RPB2]", "LABEL_VALUE": "range 2"}

----------
EXPERIMENT_NOTES: protein stability index of a GFP-peptide fusion (yeast GPS) (PSI 1-4); higher = more stable; sorted into four equal gates, so the index is relative within each strain
MEASUREMENT_CONTEXT: ubr1∆

{"SEQUENCE_ENTRY": "FDIIEESFKGLQPFWFR [ECM29]", "protein stability index": 2.21}
{"SEQUENCE_ENTRY": "NIKTIAETLAEELINAA [RPS5]", "protein stability index": 2.46}
{"SEQUENCE_ENTRY": "IPYAAKLLFQELMAMNI [RPB2]", "protein stability index": 1.55}
{"SEQUENCE_ENTRY": "IGDKFASRHGQKGTIGI [RPB2]", "protein stability index": 1.1}
{"SEQUENCE_ENTRY": "SEAEYSKDIETLKKEWL [YIL149C/MLP2]", "protein stability index": 3}
{"SEQUENCE_ENTRY": "NGNLEEEFAYVDPARRQ [MED6]", "protein stability index": 2.74}
{"SEQUENCE_ENTRY": "ESLTNSNMFDNSADVDM [YGL100W/SEH1]", "protein stability index": 3.36}
{"SEQUENCE_ENTRY": "IRKLTLRDTFIELDQVL [RPO21]", "protein stability index": 2.23}
{"SEQUENCE_ENTRY": "QDVDFYKNLDRGFSKDL [RRP6]", "protein stability index": 3.23}
{"SEQUENCE_ENTRY": "YLCFILSTRAGGLGLNL [SNF2]", "protein stability index": 2.6}
{"SEQUENCE_ENTRY": "ENEFVVLLDARDIEKIT [CDC53]", "protein stability index": 3.08}
{"SEQUENCE_ENTRY": "SNISDEKSRISERDSKD [YMR129W/POM152]", "protein stability index": 3.13}
{"SEQUENCE_ENTRY": "KGKKYQPKDLRAKKTRA [RPL35A]", "protein stability index": 2.89}
{"SEQUENCE_ENTRY": "NYLRQQCNYSSLVFNRK [PRE5]", "protein stability index": 2.75}
